Kd values, listed per item
- SYSTEM UNDER TEST: atATC (Arabidopsis ATC aa 82–390) WT (Arabidopsis thaliana)
- Construct: 2.6 kDa fusion tag (modified pET28a); made in house; host or cells: E. coli BLR(DE3)-pLysS
- EXPERIMENT: Isothermal titration calorimetry (ITC), atATC WT
- Assay type: binding
- EXPERIMENTAL SETUP: ITC, 25 °C, site 3, read-out: KD Site 3
QUANTITY: Kd

# MOLECULE, VALUE MEASURED
rows = [
    ("NC(=O)OP(=O)(O)O [CP, carbamoyl phosphate]", "80 µM"),
    ("O=c1ccn([C@@H]2O[C@H](COP(=O)(O)O)[C@@H](O)[C@H]2O)c(=O)[nH]1 [UMP, uridine 5-monophosphate]", "1.6 µM"),
]

---

- SYSTEM UNDER TEST: atATC-F161A (Arabidopsis thaliana, UniProt P49077, F161A)
- Construct: 2.6 kDa fusion tag (modified pET28a); made in house; host or cells: E. coli BLR(DE3)-pLysS
- EXPERIMENT: biochemical
- Format: binding
- EXPERIMENTAL SETUP: KD Site 3, ITC, F161A, site 3
pKd: −log10 of the molar value.
QUANTITY: pKd

# COMPOUND, VALUE MEASURED
data = [
    ("NC(=O)OP(=O)(O)O [CP, carbamoyl phosphate]", 6.14),
]

---

- SYSTEM UNDER TEST: atATC WT:PALA (Arabidopsis thaliana, UniProt P49077)
- Construct: 2.6 kDa fusion tag (modified pET28a); made in house; host or cells: E. coli BLR(DE3)-pLysS
- Sequence (P49077 82-390): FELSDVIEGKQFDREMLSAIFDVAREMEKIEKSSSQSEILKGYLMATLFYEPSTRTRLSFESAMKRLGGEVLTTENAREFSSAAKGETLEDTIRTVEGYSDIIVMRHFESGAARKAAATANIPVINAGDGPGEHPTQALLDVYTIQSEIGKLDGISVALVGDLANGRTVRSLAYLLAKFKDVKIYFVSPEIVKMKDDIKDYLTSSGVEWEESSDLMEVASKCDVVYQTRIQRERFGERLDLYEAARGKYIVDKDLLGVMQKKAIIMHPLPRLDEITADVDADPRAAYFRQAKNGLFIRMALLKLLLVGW
- EXPERIMENT: ITC, atATC WT prebound to PALA (WT:PALA)
- Format: binding
- EXPERIMENTAL SETUP: read-out: KD Site 2

# MOLECULE, Kd / µM
rows = [
    ("O=c1ccn([C@@H]2O[C@H](COP(=O)(O)O)[C@@H](O)[C@H]2O)c(=O)[nH]1 [UMP, uridine 5-monophosphate]", 1.2),
    ("NC(=O)OP(=O)(O)O [CP, carbamoyl phosphate]", 140),
]

---

- SYSTEM UNDER TEST: atATC-F161A (Arabidopsis thaliana, UniProt P49077, F161A)
- Construct: 2.6 kDa fusion tag (modified pET28a); made in house; host or cells: E. coli BLR(DE3)-pLysS
- Sequence (P49077 82-390 F161A): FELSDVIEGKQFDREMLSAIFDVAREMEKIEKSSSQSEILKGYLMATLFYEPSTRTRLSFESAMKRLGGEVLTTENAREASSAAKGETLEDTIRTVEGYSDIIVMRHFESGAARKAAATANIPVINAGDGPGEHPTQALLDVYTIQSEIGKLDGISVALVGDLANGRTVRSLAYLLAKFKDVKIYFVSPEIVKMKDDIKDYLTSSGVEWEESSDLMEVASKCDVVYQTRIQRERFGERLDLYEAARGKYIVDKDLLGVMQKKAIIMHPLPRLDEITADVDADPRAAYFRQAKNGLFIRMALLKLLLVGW
- EXPERIMENT: biochemical
- Assay type: binding
- EXPERIMENTAL SETUP: KD Site 1, ITC, F161A, site 1
pKd: −log10 of the molar value.

# COMPOUND, pKd
measured = [
    ("NC(=O)OP(=O)(O)O [CP, carbamoyl phosphate]", 6.14),
]
